Entries and their apparent KD of K4 kissing-loop reporter
- System: K4 kissing-loop RNA reporter;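 also: bound reporter read as fluorescence of individual clusters on recovered sequencing chips by microscopy, with normalized cluster intensities fitted with a binding model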
- TEST_NAME: apparent KD of K4 kissing-loop reporter; higher = weaker reporter binding
- SETUP_CONDITIONS: Eterna round: R107; input ligand: FMN 200 uM
Please state the figure in nM; there is no need to write the unit.

Field: example entries. Status: answers known.
SEQ_STRING	RESULT_UNITS	MEASURED_RESULT
UGAUACCAGACGGCCGCCACUGCACCAGUCAAUGACUGAGCGCGGUGGCGCUCAGUGAUGUUGAGCAGGACCGGGUCUGGUAUCU [Mod of Eli's TrypBX 8 v4]	nM	147
AGAUGACACCGAGGAUAUCCUAAUAUGGGUGAUGUUAGCGAUGUUGAAGGUGUAGUGAUGUUAUGCGGAGAAGGCGGUGUUGUUU [BDazzled - #21 - Exc. FMN B]	nM	104

Problem: Endpoint output: apparent KD of K4 kissing-loop reporter of UCUGGUAUAUCUGAUACCAGAGUAUAGUAUCAAUUGCAUAUCCGCAGUGAUGUUGCGGAACUCCCUUGGCAGCAGAUCUAUCUCU [Same State Theophylline B GF 26] . Value?
Solution: 71.6

* * *

- System: MS2 coat protein
- TEST_NAME: apparent KD of MS2 coat protein; designed switch direction (-1 OFF switch, 1 ON switch): -1; higher = weaker reporter binding
- SETUP_CONDITIONS: input ligand: none
MEASUREMENT_KIND: apparent KD of MS2 coat protein (nM)
Respond numerically; units are nM and should not be typed.

SEQ_STRING	apparent KD of MS2 coat protein / nM
UAUUAAACAAGCAGAUCCCACAUGAGGAUCACCCAUGUGCUCGUCUUAUAAGGUACUGUGACGAGAGUCACGGUACC [Mat - Sensor, turn-off var - Eli Mod - D63] (Eterna round: R97, puzzle: Sensor, turn-off variant 1)	45.2
CCUCGGUCAGGAUAUGGGCCAUGCGAUGAUGAAGCCUGGCGCCAGAAGGGACAUGAGGAUCACCCAUGUCCGUA [Eternabot (Original) Solution 37] (Eterna round: R97, puzzle: Exclusion 4)	17.2
UAAUUAAAUGUAGGAUAUCUGCACGAUUAGUGCAGAGAAGGACAUGAGGAUCACCCAUGUAGAUCAAAUUAAAUUAAUUUAAUU [ENG1/5-D1] (Eterna round: R96, puzzle: Exclusion NG 1)	33.8
GCAGCAACUCUAAUUAAAACCACAUGAGGAUCACCCAUGUCUCAGGAUAUGGUCUGGAUUACAGGCCAGAAGGGAGAAAGCUGC [Eli exng3 - 051] (Eterna round: R96, puzzle: Exclusion NG 3)	17
AGUAUGCGGCAGGAUAUCCAUCCGCGGUAAGGUGGAGAAGGGCUGACAUGAGGAUCACCCAUGUGCGUCCUGUA [salish99_ex6_r4_028] (Eterna round: R97, puzzle: Exclusion 6)	19.9
UACAUGAGGAUCACCCAUGUUUUGUCGUGUAUGGUAUUUAUCUAGGAUAUCAGUUUAUUUAUUUAUGAGAAGGAGAAUAUUAAU [JMF's solution 7] (Eterna round: R96, puzzle: Exclusion NG 3)	32.7

Problem: Write down the reported apparent KD of MS2 coat protein of UGAGUGCUGCGAGGAUAUACAUGAGGAUCACCCAUGUUUAGGUGUGAGGCUUUGCCUCACACCAUGUAGAAGGCGCAGUACUCU [JL ENG2 1.07] (Eterna round: R96, puzzle: Exclusion NG 2) , test system: MS2 coat protein.
Solution: 12.8

Problem: For the record UUAAUUAAUUGCGCAAGAUCACAUGAGGAUCACCCAUGUAUAUAGGAUAUCAGCUCGUGUAGAGCUGAGAAGGAUAUACAGCGC [ExNG3/3-A3] (Eterna round: R96, puzzle: Exclusion NG 3) , what value of apparent KD of MS2 coat protein is listed for MS2 coat protein?
Solution: 495

Problem: Record lookup: for MS2 coat protein, what apparent KD of MS2 coat protein belongs to UACCUAUAGGUAGGAUAUCAUUGCGAUUAGCUAUGAGAAGGACCACAUGAGGAUCACCCAUGUCCUCCAAUUAACCGAAAGGUA [Fiskers ExNg1 - 2] (Eterna round: R96, puzzle: Exclusion NG 1) ?
Solution: 50.4
